Consider the following compounds; for each one, report its melting point.

Example entries and their recorded answers appear below.
In: Report melting point, nothing else, for this compound: "O=C1CCCN1CCOc1ccc(-n2ccc(OCc3ccc(F)cc3)cc2=O)cc1"
Out: 148 to 149 °C

In: Report melting point, nothing else, for this compound: "CCN1CC[C@@H](Oc2ccc(-n3ccc(OCc4ccc(Cl)cn4)cc3=O)cc2)C1"
Out: 145 to 146 °C

In: Report melting point, nothing else, for this compound: "CCCN(C)CCOc1ccc(-n2ccc(OCc3ccc(Cl)cn3)cc2=O)cc1"
Out: 119 to 123 °C

Could you report melting point for every entry in the following list?
1. O=c1cc(OCc2ccccc2)ccn1-c1ccc(OCCN2CCCC2)cc1
2. O=c1cc(OCc2ccc(Cl)cn2)ccn1-c1ccc(OCCN2CCCC2)cc1

Out:
["109 to 111 °C", "168 to 170 °C"]

* * *

assay: Brain/cerebrospinal fluid migration test; assay type: in vivo; conditions: rat, cerebrospinal fluid; SD male rats, after 2 hours of oral administration (10 mg/kg); read-out: cerebrospinal fluid concentration
measurement label: concentration at 2 h (nM)
Give bare numbers, in nM.

In: Report concentration at 2 h, nothing else, for this compound: CN(C)CCOc1ccc(-n2ccc(OCc3ccccc3)cc2=O)cc1 [Example 1]
Out: 46

* * *

measurement label: melting point

Example entries and their recorded answers appear below.
In: Report melting point, nothing else, for this compound: "CC(C)N1CC[C@@H](Oc2ccc(-n3ccc(OCc4ccc(Cl)cn4)cc3=O)cc2)C1"
Out: 154 to 155 °C

In: Report melting point, nothing else, for this compound: "CC(C)N(C)CCOc1ccc(-n2ccc(OCc3ccc(Cl)cn3)cc2=O)cc1"
Out: 137 to 138 °C

New cases:
In: Report melting point, nothing else, for this compound: "CCN(CC)CCOc1ccc(-n2ccc(OCc3ccc(Cl)cn3)cc2=O)cc1"
Out: 112 to 115 °C

* * *

experiment: Brain/cerebrospinal fluid migration test; type: in vivo; conditions: rat, plasma; SD male rats, after 2 hours of oral administration (10 mg/kg); read-out: plasma concentration
measurement label: concentration at 2 h

In: Report concentration at 2 h, nothing else, for this molecule: CN(C)CCOc1ccc(-n2ccc(OCc3ccccc3)cc2=O)cc1 [Example 1]
Out: 250 nM

* * *

The reader will find IC50 measurements below, all made with UniProt:Q99705.
Sequence (Q99705 whole entry): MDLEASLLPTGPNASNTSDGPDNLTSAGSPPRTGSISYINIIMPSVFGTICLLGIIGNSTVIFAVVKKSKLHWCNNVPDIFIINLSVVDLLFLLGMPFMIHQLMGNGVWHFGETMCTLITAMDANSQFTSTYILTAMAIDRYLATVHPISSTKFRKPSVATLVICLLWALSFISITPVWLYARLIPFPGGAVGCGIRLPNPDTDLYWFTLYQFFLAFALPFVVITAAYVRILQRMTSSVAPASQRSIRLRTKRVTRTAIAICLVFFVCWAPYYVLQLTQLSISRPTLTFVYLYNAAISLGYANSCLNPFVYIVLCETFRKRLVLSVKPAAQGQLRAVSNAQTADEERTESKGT
One number for each entry, in nM.

Example entries and their recorded answers appear below.
In: // fetch IC50 for "O=c1cc(OCc2ccc(F)cc2)ccn1-c1ccc(OCCN2C3CCC2CC3)cc1" ; system: UniProt:Q99705
Out: 2.7

In: // fetch IC50 for "O=c1cc(/C=C/c2ccc(F)cc2)ccn1-c1ccc(OCCN2CCCC2)cc1" ; system: UniProt:Q99705
Out: 1.5

In: // fetch IC50 for "CCN(CC)CCOc1ccc(-n2ccc(OCc3ccc(F)cc3)cc2=O)cc1" ; system: UniProt:Q99705
Out: 4.8

In: // fetch IC50 for "O=c1cc(OCc2ccccc2)ccn1-c1ccc(OCCN2C3CCC2CC3)cc1" ; system: UniProt:Q99705
Out: 1.9

In: // fetch IC50 for "COc1ccc(COc2ccn(-c3ccc(OCCN4CCCC4)cc3)c(=O)c2)cc1" ; system: UniProt:Q99705
Out: 7

In: // fetch IC50 for "CN(C)CCOc1ccc(-n2ccc(OCc3ccccc3)cc2=O)cc1" ; system: UniProt:Q99705
Out: 9.5

In: // fetch IC50 for "O=c1cc(OCc2ccccc2)ccn1-c1ccc(OCCN2CCCCC2)cc1" ; system: UniProt:Q99705
Out: 4.4

In: // fetch IC50 for C[C@@H]1CC[C@@H](C)N1CCOc1ccc(-n2ccc(OCc3ccc(F)cc3)cc2=O)cc1 (relative stereo) ; system: UniProt:Q99705
Out: 3.5

Could you report IC50 for every entry in the following list?
1. CN(CCOc1ccc(-n2ccc(OCc3ccccc3)cc2=O)cc1)Cc1ccccc1
2. CN1CCC[C@H]1COc1ccc(-n2ccc(OCc3ccc(Cl)cn3)cc2=O)cc1
3. Cc1cc(-n2ccc(OCc3ccccc3)cc2=O)ccc1OCCN1CCCCC1
4. CCN(CC)CCOc1ccc(-n2ccc(OCc3ccc(Cl)cn3)cc2=O)cc1
5. CCN(CC)CCOc1ccc(-n2ccc(OCc3ccc(F)cc3)nc2=O)cc1
6. O=c1cc(OCc2ccc(Cl)cn2)ccn1-c1ccc(OC[C@H]2CCCN2C2CCC2)cc1
7. O=c1cc(OCc2ccc(F)cc2)ccn1-c1ccc(OCCN2C3CCCC2CC3)cc1

Out:
3.8
8.6
2.9
5.4
7.8
4.7
3.5
